Numbers sourced from patent US10730866B2.

TARGET ENTITY: human Nav1.7 (Homo sapiens (Human), UniProt Q15858)
Sequence (Q15858 other isoform, or with tags, fused parts or gaps): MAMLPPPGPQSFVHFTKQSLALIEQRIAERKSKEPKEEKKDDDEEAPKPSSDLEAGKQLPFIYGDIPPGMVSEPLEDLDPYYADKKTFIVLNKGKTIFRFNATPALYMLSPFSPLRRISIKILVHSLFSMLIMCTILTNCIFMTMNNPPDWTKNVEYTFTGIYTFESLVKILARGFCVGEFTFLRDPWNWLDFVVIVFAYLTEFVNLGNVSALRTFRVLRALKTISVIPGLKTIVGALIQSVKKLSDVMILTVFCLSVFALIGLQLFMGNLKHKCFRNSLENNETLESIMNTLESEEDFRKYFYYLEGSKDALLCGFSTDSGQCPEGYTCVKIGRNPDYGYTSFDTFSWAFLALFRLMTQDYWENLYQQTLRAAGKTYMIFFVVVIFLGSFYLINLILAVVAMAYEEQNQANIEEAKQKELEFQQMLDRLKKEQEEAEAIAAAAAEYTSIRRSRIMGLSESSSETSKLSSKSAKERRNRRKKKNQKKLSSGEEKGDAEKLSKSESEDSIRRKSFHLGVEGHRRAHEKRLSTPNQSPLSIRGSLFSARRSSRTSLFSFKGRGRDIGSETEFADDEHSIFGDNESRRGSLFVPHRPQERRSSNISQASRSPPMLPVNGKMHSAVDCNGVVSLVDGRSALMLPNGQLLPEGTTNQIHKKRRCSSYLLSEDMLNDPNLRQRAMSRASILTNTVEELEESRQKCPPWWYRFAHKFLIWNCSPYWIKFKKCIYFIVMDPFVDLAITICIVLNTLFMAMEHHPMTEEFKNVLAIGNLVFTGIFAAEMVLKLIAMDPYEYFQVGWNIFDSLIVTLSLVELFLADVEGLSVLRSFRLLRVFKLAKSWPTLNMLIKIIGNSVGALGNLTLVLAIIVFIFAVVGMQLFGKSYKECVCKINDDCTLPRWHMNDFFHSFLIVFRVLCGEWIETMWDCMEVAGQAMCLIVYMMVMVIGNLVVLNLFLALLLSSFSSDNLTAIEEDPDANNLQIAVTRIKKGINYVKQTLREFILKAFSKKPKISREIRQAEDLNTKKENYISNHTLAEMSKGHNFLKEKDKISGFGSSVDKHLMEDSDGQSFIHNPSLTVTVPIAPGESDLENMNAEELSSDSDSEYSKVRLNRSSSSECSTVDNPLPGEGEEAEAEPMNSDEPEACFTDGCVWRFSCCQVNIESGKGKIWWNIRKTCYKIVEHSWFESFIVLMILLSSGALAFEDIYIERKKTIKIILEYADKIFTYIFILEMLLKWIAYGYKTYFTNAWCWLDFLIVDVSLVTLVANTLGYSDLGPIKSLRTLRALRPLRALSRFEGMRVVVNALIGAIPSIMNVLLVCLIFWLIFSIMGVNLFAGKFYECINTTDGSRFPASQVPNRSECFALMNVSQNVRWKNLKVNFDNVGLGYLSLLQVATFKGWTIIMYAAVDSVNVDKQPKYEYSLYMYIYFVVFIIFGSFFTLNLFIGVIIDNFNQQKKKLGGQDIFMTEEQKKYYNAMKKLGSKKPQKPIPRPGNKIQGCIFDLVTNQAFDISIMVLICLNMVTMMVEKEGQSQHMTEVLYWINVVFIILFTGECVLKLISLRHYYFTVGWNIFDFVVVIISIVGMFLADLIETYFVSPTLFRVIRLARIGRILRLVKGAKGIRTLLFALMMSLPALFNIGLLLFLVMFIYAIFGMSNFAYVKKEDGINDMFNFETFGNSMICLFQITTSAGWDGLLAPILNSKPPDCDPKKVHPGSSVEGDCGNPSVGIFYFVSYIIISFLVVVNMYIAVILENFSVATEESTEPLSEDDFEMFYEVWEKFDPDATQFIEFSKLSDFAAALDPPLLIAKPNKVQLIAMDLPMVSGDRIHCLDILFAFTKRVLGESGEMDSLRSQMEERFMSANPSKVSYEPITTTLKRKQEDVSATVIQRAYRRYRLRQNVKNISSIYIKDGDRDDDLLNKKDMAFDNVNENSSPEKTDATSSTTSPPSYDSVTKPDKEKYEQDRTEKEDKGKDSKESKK
TEST DESCRIPTION: FLIPR or FLIPR TETRA sodium dye assay for sodium channel blocking activity
Type: cell-based
DETAILS: recombinant HEK293 cells expressing human Nav1.7
Protocol: In vitro assays were performed in a recombinant cell line expressing cDNA encoding the alpha subunit (Nav1.7, SCN9a, PN1, NE) of human Nav1.7 (Accession No. NM_002977). […] The fluorescence indicator used in the primary fluorescence assay was the cell permeant version of CoroNa™ Green (Invitrogen, Molecular Probes, Eugene, Oreg.), a dye that emits light in the fluorescence range (Harootunian et al., J. Biol. Chem. 264(32):19458-19467 (1989)). […]
TEST READOUT: IC50

{"columns": ["MOLECULE", "TARGET ENTITY", "TEST READOUT", "OBSERVED RESULT"],
 "data": [
  ["Cc1nc(Cn2ccc3cc(-c4cccc(C(N)=O)n4)ccc32)cs1 [Compound 68]", "human Nav1.7 (Homo sapiens (Human), UniProt Q15858)", "IC50", "10 to 20 µM"],
  ["OC[C@H](O)c1ccnc(-c2ccc3ncn(-c4ccc(C(F)(F)F)cc4)c3c2)n1 [Compound 50]", "human Nav1.7 (Homo sapiens (Human), UniProt Q15858)", "IC50", "> 20 µM"],
  ["CC1CN(C(=O)c2cccc(-c3ccc4[nH]ccc4c3)n2)CC(C)O1 (stereo not drawn) [Compound 86]", "human Nav1.7 (Homo sapiens (Human), UniProt Q15858)", "IC50", "> 20 µM"],
  ["O=C(Nc1ccc(C(F)(F)F)cc1)c1cccc(-c2ccc3[nH]cc(C(=O)O)c3c2)n1 [Compound 139]", "human Nav1.7 (Homo sapiens (Human), UniProt Q15858)", "IC50", "> 20 µM"],
  ["NC(=O)c1cc(O[C@H]2CCNC2=O)nc(-c2ccc3[nH]ccc3c2)n1 [Compound 37]", "human Nav1.7 (Homo sapiens (Human), UniProt Q15858)", "IC50", "> 20 µM"]
]}

IN: Request the reported IC50 associated with Cn1cc(-c2ccc(C(F)(F)F)cc2)c2cc(-c3cccc(C(N)=O)n3)ccc21 [Compound 130]
OUT: > 20 µM

IN: Moving on to Cn1cc(-c2cccc(C(F)(F)F)c2)c2cc(-c3cccc(C(N)=O)n3)ccc21 [Compound 129]
OUT: 10 to 20 µM

IN: Can you check NC(=O)c1cccc(-c2ccc3c(ccn3CCN3CCOCC3)c2)n1 [Compound 65] next?
OUT: > 20 µM

IN: Same thing, different molecule: O=C(Nc1nnn[nH]1)c1cccc(-c2ccc3[nH]ccc3c2)n1 [Compound 87]
OUT: > 20 µM

IN: Then this molecule: O=C(c1cccc(-c2ccc3[nH]ccc3c2)n1)N1CCCC1 [Compound 84]
OUT: > 20 µM

IN: Same question, CC(C)Cn1ncc2cc(-c3cccc([C@H](O)[C@@H](O)C(N)=O)n3)ccc21 [Compound 155] this time
OUT: > 20 µM

IN: Same lookup for C[C@H](NC(=O)c1cn(Cc2ccc(C(F)(F)F)cc2)c2ccc(-c3cccc(C(N)=O)n3)cc12)C(N)=O [Compound 143] , please.
OUT: > 20 µM

IN: What about this molecule? CC(C)Cn1ccc2cc(-c3cc([C@@H](O)CO)cc(C(N)=O)n3)ccc21 [Compound 125]
OUT: > 20 µM

IN: How about CCN(CC)CCn1cc(-c2ccc(F)cc2)c2ccc(-c3cccc(C(N)=O)n3)cc21 [Compound 131] ?
OUT: > 20 µM

IN: Next: NC(=O)[C@H](O)[C@@H](O)c1cccc(-c2ccc3c(ccn3CC3CC3)c2)n1 [Compound 154]
OUT: 10 to 20 µM
